Data origin, for the record: ChEMBL document CHEMBL3885861

- Species on record: Rattus norvegicus
- Test Method Notes: Open TG-GATES - Regimen: Daily Repeat
- Assay type: toxicity, organism-based, Sprague-Dawley
- Design: regimen Daily Repeat, gender Male, age 6 weeks
- Assay Setup: in vivo, po, 1000 mg/kg, […], tissue Blood, route gavage, dose level High, time 28 day
Give measured Ht for each item. Keep answers brief.
A bare number is not enough; add the unit after it.

[in] Return reported Ht; argument: CCOC(=O)CCC(=O)O[C@H]1[C@H](O[C@@H]2[C@@H](C)[C@H](O[C@H]3C[C@@](C)(OC)[C@@H](O)[C@H](C)O3)[C@@H](C)C(=O)O[C@H](CC)[C@@](C)(O)[C@H](O)[C@@H](C)C(=O)[C@H](C)C[C@@]2(C)O)O[C@H](C)C[C@@H]1N(C)C [ERYTHROMYCIN ETHYLSUCCINATE]
[out] 43.7%

[in] # input compound: COC1=CC(=O)C[C@@H](C)[C@]12Oc1c(Cl)c(OC)cc(OC)c1C2=O ; wanted: its Ht
[out] 43.2%

Here's the next entry for you.
[in] I'd like to know its Ht. The compound in question is COc1ccc2[nH]c([S+]([O-])Cc3ncc(C)c(OC)c3C)nc2c1 (stereo not drawn)
[out] 35.7%
